- Assay Target: T1, CRBN, Q96SW2;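 note: pooled lentiviral library of zinc finger degron-EGFP fusions in mCherry-positive Jurkat cells, FACS-sorted after compound exposure, with degron abundance counted by next-generation sequencing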
- T1 chain: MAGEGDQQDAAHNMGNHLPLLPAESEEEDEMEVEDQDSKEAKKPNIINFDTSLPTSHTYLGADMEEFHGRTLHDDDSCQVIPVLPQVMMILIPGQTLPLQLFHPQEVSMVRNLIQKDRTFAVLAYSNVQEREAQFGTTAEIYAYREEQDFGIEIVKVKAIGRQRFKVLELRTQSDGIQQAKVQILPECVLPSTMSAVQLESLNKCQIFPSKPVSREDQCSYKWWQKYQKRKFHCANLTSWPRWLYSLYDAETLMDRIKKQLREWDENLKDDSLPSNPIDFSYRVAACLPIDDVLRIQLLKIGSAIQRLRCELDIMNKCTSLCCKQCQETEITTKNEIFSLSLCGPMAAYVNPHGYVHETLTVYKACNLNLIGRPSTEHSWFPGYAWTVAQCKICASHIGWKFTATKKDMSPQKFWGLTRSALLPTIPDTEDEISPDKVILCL
- Experiment Notes: log2 fold change of degron read counts, EGFP-low vs EGFP+ sorted cells (limma voom), compound-induced degradation; higher = more compound-induced degradation of the degron-EGFP fusion; degrons are variants of IKZF1/3 zinc finger 2; compound dose not given here
- Test Settings: Jurkat; 18 h; compound: thalidomide
Whole data set: some 8,300 sequences, median “log2 fold change of degron read counts, EGFP-low vs EGFP+ sorted cells (limma voom), compound-induced degradation” near -1.1, cut for the highest 2% near 3.2. The sample as a whole holds a higher share of the highest values than the screen did.
Could you label it satisfied if measured log2 fold change of degron read counts is -0.2 or higher, and not satisfied otherwise?

Q. Confirm if log2 fold change of degron read counts reported for the sequence FFCEVCGAMFTQKGNLLRHIKL [46F_47F_49E_50V_52G_53A_54M_55F_67L_, Q9UKT9] is -0.2 or above.
A. satisfied

Q. Answer whether log2 fold change of degron read counts of FLCEICGAYFTQKGNLLRHIKL [46F_47L_49E_50I_52G_53A_54Y_55F_67L_, Q9UKT9] is greater than or equal to -0.2.
A. satisfied

Q. Threshold query (log2 fold change of degron read counts >= -0.2) on FRCDICGANFTQKGNLLRHIKL [46F_47R_49D_50I_52G_53A_54N_55F_67L_, Q9UKT9]
A. not satisfied

Q. Decide: is the reported value of log2 fold change of degron read counts for FVCNICGAYFTQKGNLLRHIKL [46F_47V_49N_50I_52G_53A_54Y_55F_67L_, Q9UKT9] equal to or greater than -0.2?
A. satisfied

Q. Check the entry LMCPICGFCCTQKGNLLRHIKL [46L_47M_49P_50I_52G_53F_54C_55C_67L_, Q9UKT9] : does log2 fold change of degron read counts equal or exceed -0.2?
A. satisfied

Q. Is log2 fold change of degron read counts at least -0.2? Consider FYCEVCGAMFTQKGNLLRHIKL [46F_47Y_49E_50V_52G_53A_54M_55F_67L_, Q9UKT9]
A. satisfied

Q. Determine whether this sequence has log2 fold change of degron read counts no lower than -0.2: FECEVCGAMFTQKGNLLRHIKL [46F_47E_49E_50V_52G_53A_54M_55F_67L_, Q9UKT9]
A. satisfied

Q. Would you say LQCPICGFCCTQKGNLLRHIKL [46L_47Q_49P_50I_52G_53F_54C_55C_67L_, Q9UKT9] shows log2 fold change of degron read counts at minimum -0.2?
A. satisfied

Q. State whether the measured log2 fold change of degron read counts reaches -0.2, counting equality as reaching it, for FFCPICGHGFTQKGNLLRHIKL [46F_47F_49P_50I_52G_53H_54G_55F_67L_, Q9UKT9]
A. not satisfied

Q. Determine whether measured log2 fold change of degron read counts meets or exceeds -0.2 for FGCEVCGADFTQKGNLLRHIKL [46F_47G_49E_50V_52G_53A_54D_55F_67L_, Q9UKT9]
A. not satisfied

Q. Tell me whether log2 fold change of degron read counts is at least -0.2 here: LYCPICGFCCTQKGNLLRHIKL [46L_47Y_49P_50I_52G_53F_54C_55C_67L_, Q9UKT9]
A. satisfied

Q. // inclusive: log2 fold change of degron read counts at least -0.2? input: FRCNICGAMFTQKGNLLRHIKL [46F_47R_49N_50I_52G_53A_54M_55F_67L_, Q9UKT9]
A. satisfied

Q. # bool: log2 fold change of degron read counts of LCCPICGFCCTQKGNLLRHIKL [46L_47C_49P_50I_52G_53F_54C_55C_67L_, Q9UKT9] >= -0.2
A. satisfied

Q. Check this sequence for log2 fold change of degron read counts at or above -0.2: FGCEVCGALFTQKGNLLRHIKL [46F_47G_49E_50V_52G_53A_54L_55F_67L_, Q9UKT9]
A. not satisfied

Q. Does log2 fold change of degron read counts meet or surpass -0.2 for FHCEVCGAMFTQKGNLLRHIKL [46F_47H_49E_50V_52G_53A_54M_55F_67L_, Q9UKT9] ?
A. not satisfied

Q. Dear colleague, could you confirm whether FLCEQCGAMFTQKGNLLRHIKL [46F_47L_49E_50Q_52G_53A_54M_55F_67L_, Q9UKT9] has log2 fold change of degron read counts at or above -0.2?
A. not satisfied

Q. In plain terms: is recorded log2 fold change of degron read counts at least -0.2 for FKCNICGATFTQKGNLLRHIKL [46F_47K_49N_50I_52G_53A_54T_55F_67L_, Q9UKT9] ?
A. not satisfied

Q. Please indicate if the recorded log2 fold change of degron read counts for FKCNVCGANFTQKGNLLRHIKL [46F_47K_49N_50V_52G_53A_54N_55F_67L_, Q9UKT9] meets or exceeds -0.2.
A. not satisfied

Q. Threshold query (log2 fold change of degron read counts >= -0.2) on FKCEVCGARFTQKGNLLRHIKL [46F_47K_49E_50V_52G_53A_54R_55F_67L_, Q9UKT9]
A. not satisfied

Q. Say whether FACPVCGAAFTQKGNLLRHIKL [46F_47A_49P_50V_52G_53A_54A_55F_67L_, Q9UKT9] shows log2 fold change of degron read counts of -0.2 or more.
A. satisfied

Q. Please indicate if the recorded log2 fold change of degron read counts for FLCPVCGAAFTQKGNLLRHIKL [46F_47L_49P_50V_52G_53A_54A_55F_67L_, Q9UKT9] meets or exceeds -0.2.
A. satisfied
